Assay: Quantitative High-Throughput drug screen in 47 multiple myeloma cell lines against the NCATS MIPE library collection: OCIMY5_PLB cell viability assay (AID 1918988); also: potency is read from the fitted curve at half-maximal effect; nearly all actives have a fitted effect of over 65% in size
Conditions: OCI-MY5 myeloma viability, ATP luminescence, 48 h; series mostly up to 45.8 µM
Inconclusive results are not listed. The source made the active and inactive calls. Calls follow the shape of the dose curve; as a rule, active = well fitted cell-killing curve with a large enough effect; inconclusive = small, poorly fitted or top-dose-only effect, or effect the other way; inactive = no such curve, though single readings can be large or run the other way.
readout_kind: Potency

Take a look at these entries with their results.
chem_smiles	Potency
CO[C@H]1/C=C\O[C@@]2(C)Oc3c(C)c(O)c4c(O)c(c(C=NN5CCN(C6CCCC6)CC5)c(O)c4c3C2=O)NC(=O)C(C)=CC=C[C@H](C)[C@H](O)[C@@H](C)[C@@H](O)[C@@H](C)[C@H](OC(C)=O)[C@H]1C	418 nM (active)
CN1CCC(COc2cnc(-c3cccc(Cn4nc(-c5cccc(C#N)c5)ccc4=O)c3)nc2)CC1	46.9 nM (active)
CN1CCc2c(n(Cc3ccc(C(=O)NO)cc3)c3ccccc23)C1	16600 nM (active)

# input for lookup
Fill in reported Potency for this entry: `O=C1C(c2c(O)[nH]c3ccccc23)=Nc2ccccc21`
1320 nM (active)
